Parameter: Kd. Scope: all listed entries.
- ASSAYED SYSTEM: Mer (Homo sapiens, UniProt Q12866)
- Construct: purchased Life Technologies
- Sequence (Q12866 21-999): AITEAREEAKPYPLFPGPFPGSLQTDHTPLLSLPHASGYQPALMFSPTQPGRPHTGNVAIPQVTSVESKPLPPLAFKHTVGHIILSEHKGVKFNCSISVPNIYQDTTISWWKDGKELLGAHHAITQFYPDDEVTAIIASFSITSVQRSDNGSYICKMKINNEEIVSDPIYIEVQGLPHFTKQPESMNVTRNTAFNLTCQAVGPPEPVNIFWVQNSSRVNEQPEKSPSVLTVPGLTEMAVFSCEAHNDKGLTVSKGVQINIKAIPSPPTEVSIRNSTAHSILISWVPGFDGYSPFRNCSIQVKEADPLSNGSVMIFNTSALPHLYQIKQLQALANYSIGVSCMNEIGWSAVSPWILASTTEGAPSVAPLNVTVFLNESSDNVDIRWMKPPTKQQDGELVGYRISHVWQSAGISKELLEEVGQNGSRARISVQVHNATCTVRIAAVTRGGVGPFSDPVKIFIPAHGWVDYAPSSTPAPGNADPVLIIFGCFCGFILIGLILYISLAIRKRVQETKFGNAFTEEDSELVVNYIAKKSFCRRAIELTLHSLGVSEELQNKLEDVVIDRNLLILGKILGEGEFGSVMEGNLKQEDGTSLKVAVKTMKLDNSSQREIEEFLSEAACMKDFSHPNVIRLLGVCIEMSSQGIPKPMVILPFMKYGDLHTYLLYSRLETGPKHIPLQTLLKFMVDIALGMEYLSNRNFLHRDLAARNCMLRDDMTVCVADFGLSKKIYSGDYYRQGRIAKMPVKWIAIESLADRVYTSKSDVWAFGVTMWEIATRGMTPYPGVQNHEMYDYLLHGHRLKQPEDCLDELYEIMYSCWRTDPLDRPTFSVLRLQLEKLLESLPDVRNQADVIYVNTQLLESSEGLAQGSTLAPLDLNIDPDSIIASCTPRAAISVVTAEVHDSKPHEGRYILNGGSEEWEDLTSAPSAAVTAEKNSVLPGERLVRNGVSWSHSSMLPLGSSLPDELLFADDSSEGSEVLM
- TEST: LanthaScreen Eu kinase binding assay for Mer
- CONDITION SUMMARY: read-out: Mer kinase binding activity (Kd)

Answered examples (8):
# MOLECULE, Kd
data = [
    ("COc1cc2nccc(Oc3ccc(NC(=O)c4nn(C(C)(C)C)cc4OCC(F)(F)F)nc3)c2cc1OC", "< 100 nM"),
    ("COc1cc2nccc(Oc3ccc(NC(=O)c4nn(C[C@@H](C)O)cc4OCC(F)(F)F)nc3)c2cc1OC", "< 100 nM"),
    ("COc1cc2nccc(Oc3ccc(NC(=O)c4nn(CC(C)C)cc4OCC(F)(F)F)nn3)c2cc1OC", "< 100 nM"),
    ("CNCCn1cc(OCC(F)(F)F)c(C(=O)Nc2ccc(Oc3ccnc4cc(OC)c(OC)cc34)nn2)n1", "≥ 500 nM"),
    ("COc1cc2nccc(Oc3ccc(NC(=O)c4nn(C)cc4OCC(F)(F)F)nc3)c2cc1OC", "< 100 nM"),
    ("CCCn1cc(OCCOC)c(C(=O)Nc2ccc(Oc3ccnc4cc(OC)c(OC)cc34)cn2)n1", "< 100 nM"),
    ("COc1cc2nccc(Oc3ccc(NC(=O)c4nn(CC5CCC5)cc4OCC(F)(F)F)nc3)c2cc1OC", "< 100 nM"),
    ("COc1cc2nccc(Oc3ccc(NC(=O)c4nn(C5CCOC5)cc4OCC(F)(F)F)cc3C)c2cc1OC (stereo not drawn)", "< 100 nM"),
]

// next item, Kd requested
Lookup result for COc1cc2nccc(Oc3ccc(NC(=O)c4nn(CC5COC5)cc4OCC(F)(F)F)nn3)c2cc1OC ; measured Kd: < 100 nM
